- protocol-details: Plasma pharmacokinetics of immediate release and gastric resident dosage forms in pigs
- Format: in vivo, Yorkshire pigs
- experimental-setup: female, Yorkshire, pig, plasma, oral, 175 mg; gastric resident dosage form, pigs, post-dose; read-out: time of maximum plasma concentration (converted)
parameter: Tmax
Numeric answer plus unit only.

Request: Endpoint output: Tmax of Cc1cc(/C=C/C#N)cc(C)c1Nc1ccnc(Nc2ccc(C#N)cc2)n1 . Value?
Result: 24 h
